B1: Pistol ribozyme (parent)
chain: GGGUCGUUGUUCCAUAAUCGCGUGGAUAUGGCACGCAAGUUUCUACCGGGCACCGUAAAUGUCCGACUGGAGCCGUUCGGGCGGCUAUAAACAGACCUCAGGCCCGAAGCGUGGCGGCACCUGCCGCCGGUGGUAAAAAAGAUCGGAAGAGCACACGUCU

variants of: B1; assay: aptazyme ON/OFF ratio, guanine; higher = stronger switching; co-transcriptional cleavage with and without guanine
endpoint: aptazyme ON/OFF ratio
Lab note: record just the number, no unit beside it.

Input U8C G9A U10G U11C C12U C13A . Output aptazyme ON/OFF ratio: 1.2

Input U7G U8A U10C U11C C12A . Output aptazyme ON/OFF ratio: 1.46

Input G9U U10G U11A C12A C13A . Output aptazyme ON/OFF ratio: 1.56

Input U8A U10C C12U C13G . Output aptazyme ON/OFF ratio: 1.11

Input U7G U10G U11A C12G . Output aptazyme ON/OFF ratio: 1.08

Input U8G G9A U11G C12G C13A . Output aptazyme ON/OFF ratio: 1.27

Input U8G G9A C12U C13G . Output aptazyme ON/OFF ratio: 1.28

Input U7G G9A U11A C13G . Output aptazyme ON/OFF ratio: 1.1

Input U10G U11A C12G C13A . Output aptazyme ON/OFF ratio: 1.16

Input U7C U10C C13A . Output aptazyme ON/OFF ratio: 1.11
